EC50 listing for selected binders.
target: T1, HER2-ECD (recombinant extracellular domain of human epidermal growth factor receptor 2) (human, UniProt P04626 23-652); experiment: ELISA, IgG1 titrated on immobilized HER2-ECD
T1 construct: extracellular domain; Recombinant HER2-ECD coated on ELISA plates

[
  {
    "BINDER": "35WYK-9 IgG1 (antibody, V domains shown) VH: EVQLVESGGGLVQPGGSLRLSCKASGYTFSHWGMHWVRQAPGKGLEWVAGIYPYFGNTYYADSVKGRFTISADTSKNTAYLQMNSLRAEDTAVYYCARGLLDYWGQGTLVTVSS VL: DIQMTQSPSSLSASVGDRVTITCKSNQNLLLSNGRTFLHWYQQKPGKAPKLLIFDVSNLYSGAPSRFSGSGSGTDFTLTISSLQPDDFATYYCSQTSRFPWTFGQGTKVEIKR",
    "EC50 [ng/mL]": 5.7
  },
  {
    "BINDER": "31YCM#3 IgG1 (antibody, V domains shown) VH: EVQLVESGGGLVQPGGSLRLSCKASGYTFARSGMHWVRQAPGKGLEWVAGISPNYGLTHYADSVKGRFTISADTSKNTAYLQMNSLRAEDTAVYYCARGFGVLDYWGQGTLVTVSS VL: DIQMTQSPSSLSASVGDRVTITCKSNQNLLISGNQWTFLNWYQQKPGKAPKLLIYDVSRLYSGVPSRFSGSGSGTDFTLTISSLQPEDFATYYCYQGSDFPGTFGQGTKVEIKR",
    "EC50 [ng/mL]": 7.3
  },
  {
    "BINDER": "35WYK-16 IgG1 (antibody, V domains shown) VH: EVQLVESGGGLVQPGGSLRLSCKASGYTFGTSWMHWVRQAPGKGLEWVAGITPYYGLTFYADSVKGRFTISADTSKNTAYLQMNSLRAEDTAVYYCARGNLDYWGQGTLVTVSS VL: DIQMTQSPSSLSASVGDRVTITCKSNQNLLLSNGRTFLYWYQQKPGKAPKLLIYDVSDLYSGVPSRFSGSGSGTDFTLTISSLQPEDFATYYCFQGNNFPYTFGQGTKVEIKR",
    "EC50 [ng/mL]": 6.2
  },
  {
    "BINDER": "2835-28 IgG1 (antibody, V domains shown) VH: EVQLVESGGGLVQPGGSLRLSCKASGYTFTDGSMHWVRQAPGKGLEWVAYINPYFGDTYYADSVKGRFTISADTSKNTAYLQMNSLRAEDTAVYYCARGWIDYWGQGTLVTVSS VL: DIQMTQSPSSLSASVGDRVTITCKSNQNLLLSNGRTFLYWYQQKPGKAPKLLIYGTSYLYSGVPSRFSGSGSGTDFTLTISSLQPEDFATYYCFQANHLPWTFGQGTKVEIKR",
    "EC50 [ng/mL]": 3.9
  },
  {
    "BINDER": "35CPT-9 IgG1 (antibody, V domains shown) VH: EVQLVESGGGLVQPGGSLRLSCKASGYTFGDYGMHWVRQAPGKGLEWVAHIAPNDGITHYADSVKGRFTISADTSKNTAYLQMNSLRAEDTAVYYCARGYGWYDHVMDYWGQGTLVTVSS VL: DIQMTQSPSSLSASVGGRVTITCKSNQNLLDSYGRTYLYWYQQKPGKAPKLLISGTSGLYSGVPSRFSGSGSGTDFTLTISSLQPEDFATYYCFQGYDYPFTFGQGTKVEIKR",
    "EC50 [ng/mL]": 31.7
  }
]

Just for reference, patent US20190085323A1 is where these values come from.
